B1: KRT33B (parent)
chain: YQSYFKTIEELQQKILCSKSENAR

Variants of: B1
TEST SUMMARY: protein stability index of a GFP-peptide fusion (GPS, HEK-293T) (PSI 1-6); higher = more stable;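 further: lentivirally expressed fusions sorted by FACS into six bins by GFP to DsRed ratio, PSI derived from sequencing read proportions per bin multiplied by bin number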
EXPERIMENTAL SETUP: c terminus: a fixed tail appended
OBSERVATION TYPE: protein stability index
Give bare numbers.

VARIANT DESCRIPTOR	protein stability index
C17G	1.87

Hi! Can you tell me protein stability index for each of these variants?
1. Q2I
2. A23W
3. R24G
4. E21W

result:
2.63
1.57
2.55
1.28

Return reported protein stability index values for all items listed beneath this line.
1. T7P
2. Q13C

result:
[1.85, 1.3]

I would be grateful if you could provide protein stability index for each of the following entries.
1. L11R
2. Q13F
3. Y4D
4. L16K
5. S3W

result:
[1.62, 2.04, 2.34, 2.39, 1.79]

For each entry beneath this line, provide reported protein stability index.
1. E21Q
2. E9D
3. F5I
4. R24W
5. L16T
6. S3T
7. Y4I

result:
1: 2.1; 2: 1.9; 3: 2.12; 4: 1.15; 5: 1.55; 6: 1.9; 7: 1.96

// for each variant below, give its protein stability index
1. E21R
2. E9Q
3. Q12Y

result:
1: 1.77; 2: 1.98; 3: 1.97

The following variants each have a reported value; give each one's protein stability index.
1. E9A
2. T7K

result:
1. 1.98
2. 1.88

Okay, here is my list. What is protein stability index for each of these?
1. S3L
2. C17E
3. K19C
4. K14P
5. E10K
6. K6C
7. S3F
8. Q13V

result:
[1.96, 2.49, 1.84, 1.45, 2.44, 3.34, 1.46, 1.78]

Please state, for each entry, its recorded protein stability index.
1. Y4T
2. E9F
3. Q2C
4. L11F
5. E21C

result:
[1.74, 1.53, 1.52, 1.75, 1.79]
